Recorded values, source patent US20240182536A1.

# system.under.test: T1, IL-18 binding protein (IL-18BP) (UniProt O95998 31-194); further: unit not given here
# T1 sequence (looked up): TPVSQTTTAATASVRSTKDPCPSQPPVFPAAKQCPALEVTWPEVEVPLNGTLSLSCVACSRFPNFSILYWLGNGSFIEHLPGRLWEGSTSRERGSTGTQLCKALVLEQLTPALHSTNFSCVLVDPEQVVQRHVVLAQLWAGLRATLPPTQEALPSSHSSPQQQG
# protocol.description: cell-based or functional assay
value.type: Activity, +100 nM BP, DF-5000003
// no unit string in output, number only

Need Activity, +100 nM BP, DF-5000003, item IL-18 variant G3Y, E6N, N91Y, R104S (ligand) YFYKLNSKLSVIRNLNDQVLFIDQGNRPLFEDMTDSDMRDNAPRTIFIISMYKDSQPRGMAVTISVKSEKISTLSSENKIISFKEMNPPDYIKDTKSDIIFFQSSVPGHDNKMQFESSSYEGYFLASEKERDLFKLILKKEDELGDRSIMFTVQNED
1.2

Would you mind doing IL-18 variant G3T, E6Q, K53G, D54G, S55H, T63A, S65T, N91R, R104Q (ligand) YFTKLQSKLSVIRNLNDQVLFIDQGNRPLFEDMTDSDMRDNAPRTIFIISMYGGHQPRGMAVAITVKSEKISTLSSENKIISFKEMNPPDRIKDTKSDIIFFQQSVPGHDNKMQFESSSYEGYFLASEKERDLFKLILKKEDELGDRSIMFTVQNED as well?
0.18

Would you mind doing IL-18 variant G3Q, E6N, K53T, D54A, N91K, R104P (ligand) YFQKLNSKLSVIRNLNDQVLFIDQGNRPLFEDMTDSDMRDNAPRTIFIISMYTASQPRGMAVTISVKSEKISTLSSENKIISFKEMNPPDKIKDTKSDIIFFQPSVPGHDNKMQFESSSYEGYFLASEKERDLFKLILKKEDELGDRSIMFTVQNED as well?
0.09
